# credit: patent US20190367592A1

Please provide measured Kd for the entries that follow.
Target: T1, recombinant human Tau monomer, 2N4R isoform (amino acids 2-441) (human, UniProt P10636-8 2-441)
T1 construct: range 2-441; N-terminal His-tag removed with TEV protease; also called monomeric Tau
T1 sequence (P10636 other isoform, or with tags, fused parts or gaps limits assumed): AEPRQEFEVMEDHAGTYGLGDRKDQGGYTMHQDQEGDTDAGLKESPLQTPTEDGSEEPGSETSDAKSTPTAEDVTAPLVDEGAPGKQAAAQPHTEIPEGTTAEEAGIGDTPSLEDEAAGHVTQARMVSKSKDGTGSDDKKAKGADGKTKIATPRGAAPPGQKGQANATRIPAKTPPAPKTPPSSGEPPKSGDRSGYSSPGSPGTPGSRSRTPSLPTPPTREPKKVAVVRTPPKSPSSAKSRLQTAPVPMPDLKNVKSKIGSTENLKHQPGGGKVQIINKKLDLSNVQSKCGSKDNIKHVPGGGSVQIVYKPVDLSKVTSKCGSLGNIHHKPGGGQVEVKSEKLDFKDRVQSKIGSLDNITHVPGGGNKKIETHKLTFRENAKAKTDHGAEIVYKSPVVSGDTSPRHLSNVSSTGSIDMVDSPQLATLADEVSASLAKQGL
Test: SPR screen, hIgG captured, Tau monomer analyte
Method: Antibody 125B11-H3 was humanized onto VH3 and Vκ1 consensus frameworks. The heavy chain graft included murine residues at position 78 (Kabat numbering system). The Vκ1 graft included murine residues in framework positions 43 and 87. […] Association and dissociation of 0, 100 and 500 nM human Tau monomer in HBSP was monitored for 180s and 300s respectively at a flow rate of 40 μl/min. […]
Report only the number, with the unit nM understood.

Give the measured Kd of hu125B11.v28 (HC4+LC4) (antibody, IgG1, V domains shown, also called hu125B11 HC4 + 125B11 LC4) VH: EVQLVESGGGLVQPGGSLRLSCAASRFIFSNYWMNWVRQAPGKGLEWVAQIRLKSDNYATHYAESVKGRFTISRDNSKNTLYLQMNSLRAEDTAVYYCTGGTTYWGQGTLVTVSS VL: DIQMTQSPSSLSASVGDRVTITCKASQNVGTAVAWYQQKPGKAPKLLIYSASIRYTGVPSRFSGSGSGTDFTLTISSLQPEDFATYYCQQFRTYPYTFGQGTKVEIK .
17

Fill in the blank: the reported Kd of hu125B11 HC5 + 125B11 LC1 (antibody, V domains shown) VH: EVQLVESGGGLVQPGGSLRLSCAASRFIFSNYYMNWVRQAPGKGLEWVAQIRLKSDNYATHYAESVKGRFTISRDDSKNTVYLQMNSLRAEDTAVYYCTGGTTYWGQGTLVTVSS VL: DIQMTQSPSSLSASVGDRVTITCKASQNVGTAVAWYQQKPGKSPKLLIYSASIRYTGVPSRFSGSGSGTDFTLTISSLQPEDFATYFCQQFRTYPYTFGQGTKVEIK is ____.
85

Give its Kd value. Item: hu125B11 HC1 + hu113F5-F7 LC3 (antibody, V domains shown) VH: EVQLVESGGGLVQPGGSLRLSCAASRFIFSNYWMNWVRQAPGKGLEWVAQIRLKSDNYATHYAESVKGRFTISRDDSKNTVYLQMNSLRAEDTAVYYCTGGTTYWGQGTLVTVSS VL: DIQMTQSPSSLSASVGDRVTITCKASQNVGTAVAWYQQKPGKSPKLLIYSASRRFSGVPSRFSGSGSGTDFTLTISSLQPEDFATYYCQQFSTYPYTFGQGTKVEIK
61
